Measured On: 5HT receptors (type 5HT2A) (Homo sapiens, UniProt P28223)
Sequence (P28223 whole entry): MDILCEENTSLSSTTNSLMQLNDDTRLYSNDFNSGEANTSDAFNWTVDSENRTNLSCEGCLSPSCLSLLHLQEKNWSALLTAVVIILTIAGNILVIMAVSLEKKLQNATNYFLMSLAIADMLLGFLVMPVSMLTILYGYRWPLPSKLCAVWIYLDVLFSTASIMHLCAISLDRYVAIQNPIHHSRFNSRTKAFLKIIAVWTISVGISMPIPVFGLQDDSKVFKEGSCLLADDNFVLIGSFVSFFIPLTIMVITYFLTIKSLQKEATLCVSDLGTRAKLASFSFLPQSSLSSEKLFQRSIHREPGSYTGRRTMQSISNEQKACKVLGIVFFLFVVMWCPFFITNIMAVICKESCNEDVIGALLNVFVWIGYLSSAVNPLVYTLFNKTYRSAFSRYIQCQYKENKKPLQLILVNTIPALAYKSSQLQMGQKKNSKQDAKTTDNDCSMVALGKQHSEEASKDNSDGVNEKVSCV
Assay Procedure: Affinity for receptors, displacement of labelled specific ligand: 5HT2A
Type: binding
Assay Context: concentration 10^−5 M
Assay Readout: inhibition at 10 µM (%)
Give just the number in %; leave the unit off.

Compound	inhibition at 10 µM (%)
CN1CCN(CCN2CCCC(C(=O)Nn3ccc4ccccc43)C2)CC1 (centres unmarked) [Example 25]	14

CN1CCN(CCN2CCC=C(C(=O)Nn3ccc4cc(Cl)ccc43)C2)CC1 [Example 47] has a reported inhibition at 10 µM of 15

---

Measured On: 5HT receptors (type 5HT2A) (Homo sapiens, UniProt P28223)
Assay Procedure: Affinity for receptors, displacement of labelled specific ligand: 5HT2A
Type: binding
Assay Context: concentration 10^−7 M
Assay Readout: inhibition at 0.1 µM (%)
Give just the number in %; leave the unit off.

Molecule	inhibition at 0.1 µM, %
CN1CCN(CCN2CCCC(C(=O)Nn3ccc4ccccc43)C2)CC1 (centres unmarked)	12

Okay, next one:
`CN1CCN(CCN2CCC=C(C(=O)Nn3ccc4cc(Cl)ccc43)C2)CC1` has a reported inhibition at 0.1 µM of 10
